- Measured on: T1, yeast Mob1 (yeast, UniProt P40484 79-314)
- T1 chain: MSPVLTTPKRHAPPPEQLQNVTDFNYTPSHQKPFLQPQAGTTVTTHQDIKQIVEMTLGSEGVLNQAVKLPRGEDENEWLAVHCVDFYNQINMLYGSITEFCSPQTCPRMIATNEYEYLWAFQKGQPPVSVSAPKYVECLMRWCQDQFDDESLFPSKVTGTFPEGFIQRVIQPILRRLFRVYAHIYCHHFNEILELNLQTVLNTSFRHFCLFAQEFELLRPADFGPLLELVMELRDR
- Protocol notes: FP
Where no end group is shown, it is not given here. [ ]: non-standard residue; d: D form. pS = N[C@@H](COP(=O)(O)O)C(=O)O
Catalogue of binders with associated Kd
Measurement kind: Kd (µM)

DDTLPSQLGTMVINA (also: phosphothreonine at 367 (place in peptide not given here), FITC label, position not given here) [FITC labeled phosphorylated MST1 T367 peptide]    29
YH[pS]VVRYA (also: FITC label, position not given here) [optimized Nud1-like phosphoserine containing peptide (FITC labeled)]    0.4

Data origin: paper PMC5461540
